ASSAY: Clearance in Sprague-Dawley rat plasma at 3 mg/kg, iv and 3 mg/kg, po
Format: ADME, organism-based
MEASURED_ATTRIBUTE: clearance

Endpoint output: clearance of Cn1c(C(C)(C)C)nc(C(=O)NCc2ccc(F)cc2S(C)(=O)=O)c(O)c1=O . Value?
37 mL/min/kg

Another: CNC(=O)c1cc(F)ccc1CNC(=O)c1nc(C(C)(C)C)n(C)c(=O)c1O
24 mL/min/kg

Another compound to look at: CCNC(=O)c1cc(F)ccc1CNC(=O)c1nc(C(C)(C)C)n(C)c(=O)c1O
21 mL/min/kg

// query: Cn1c(C(C)(C)C)nc(C(=O)NCc2ccc(F)cc2C(N)=O)c(O)c1=O
55 mL/min/kg

---

TEST_TARGET: Human immunodeficiency virus type 1 integrase (Human immunodeficiency virus 1)
Sequence (Q7ZJM1 whole entry): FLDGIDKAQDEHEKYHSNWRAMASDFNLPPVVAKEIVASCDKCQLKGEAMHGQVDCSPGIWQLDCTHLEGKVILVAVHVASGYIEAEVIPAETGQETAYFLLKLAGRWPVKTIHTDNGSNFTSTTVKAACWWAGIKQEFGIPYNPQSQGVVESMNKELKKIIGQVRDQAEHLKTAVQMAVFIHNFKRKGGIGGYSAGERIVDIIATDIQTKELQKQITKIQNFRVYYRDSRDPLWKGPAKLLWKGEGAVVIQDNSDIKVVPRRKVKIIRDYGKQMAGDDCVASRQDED
ASSAY: Inhibition of HIV1 recombinant integrase strand transfer activity
MEASURED_ATTRIBUTE: IC50 (nM)
Lab book: enter the figure in nM, no units written.

- COMPOUND_STRUCTURE: "Cc1noc(-c2cc(F)ccc2CNC(=O)c2nc(C(C)(C)C)n(C)c(=O)c2O)n1"
  MEASURED_ATTRIBUTE: "IC50"
  EXPERIMENTAL_VALUE: 20

Lab request: please report IC50 under test system Human immunodeficiency virus type 1 integrase (Human immunodeficiency virus 1) for CN(C)C(=O)c1cc(F)ccc1CNC(=O)c1nc(C(C)(C)C)n(C)c(=O)c1O
180

Same lookup for CCNC(=O)c1cc(F)ccc1CNC(=O)c1nc(C(C)(C)C)n(C)c(=O)c1O , please.
70

Same question, CCCNC(=O)c1cc(F)ccc1CNC(=O)c1nc(C(C)(C)C)n(C)c(=O)c1O this time
70

And for CC(C)NC(=O)c1cc(F)ccc1CNC(=O)c1nc(C(C)(C)C)n(C)c(=O)c1O ?
90

Ok, now CN1CCN(C(=O)c2cc(F)ccc2CNC(=O)c2nc(C(C)(C)C)n(C)c(=O)c2O)CC1
490

Another: Cc1noc(-c2cc(F)ccc2CNC(=O)c2nc(C(C)(C)C)nc(O)c2O)n1
20

Entry CCOc1ccccc1CNC(=O)c1nc(C(C)(C)C)nc(O)c1O please
10

// query: CC(C)(C)c1nc(O)c(O)c(C(=O)NCc2ccc(F)cc2)n1
10

Query Cn1c(C(C)(C)C)nc(C(=O)NCc2ccc(F)cc2C(N)=O)c(O)c1=O next
20

Field entry: Cn1c(C(C)(C)C)nc(C(=O)NCc2ccc(F)cc2S(C)(=O)=O)c(O)c1=O
20

Please do the same for Cn1c(C(C)(C)C)nc(C(=O)NCc2ccc(F)cc2C(=O)NCC(F)(F)F)c(O)c1=O as well.
90

// query: Cn1c(C(C)(C)C)nc(C(=O)NCc2ccc(F)cc2)c(O)c1=O
10

// query: CC(C)(C)c1nc(O)c(O)c(C(=O)NCc2cccc3cc[nH]c23)n1
10

Now the same for Cn1c(C(C)(C)C)nc(C(=O)NCc2cccc3cc[nH]c23)c(O)c1=O
20

---

ASSAY: AUC in Sprague-Dawley rat at 3 mg/kg, po
Format: ADME, organism-based, Plasma
Design: dose 3 mg/kg, route oral
SETUP_CONDITIONS: Sprague-Dawley, plasma
MEASURED_ATTRIBUTE: AUC

What value of measured AUC is listed for Cn1c(C(C)(C)C)nc(C(=O)NCc2ccc(F)cc2S(C)(=O)=O)c(O)c1=O ?
0.6 µM·h

What about Cn1c(C(C)(C)C)nc(C(=O)NCc2ccc(F)cc2C(N)=O)c(O)c1=O ?
0.6 µM·h

Then what about the molecule CNC(=O)c1cc(F)ccc1CNC(=O)c1nc(C(C)(C)C)n(C)c(=O)c1O ?
1.4 µM·h

Consider next the molecule CCNC(=O)c1cc(F)ccc1CNC(=O)c1nc(C(C)(C)C)n(C)c(=O)c1O in the same way.
1.8 µM·h

---

ASSAY: Terminal half life in Sprague-Dawley rat plasma at 3 mg/kg, iv
Assay type: ADME, organism-based
Design: dose 3 mg/kg, route intravenous
Measured half-life of individual entries

- COMPOUND_STRUCTURE: "Cn1c(C(C)(C)C)nc(C(=O)NCc2ccc(F)cc2S(C)(=O)=O)c(O)c1=O"
  half-life: "1.8 h"

Using the record for CCNC(=O)c1cc(F)ccc1CNC(=O)c1nc(C(C)(C)C)n(C)c(=O)c1O , report its half-life.
2.6 h

Now consider CNC(=O)c1cc(F)ccc1CNC(=O)c1nc(C(C)(C)C)n(C)c(=O)c1O .
1.6 h

Thanks! And CC(C)NC(=O)c1cc(F)ccc1CNC(=O)c1nc(C(C)(C)C)n(C)c(=O)c1O ?
1.6 h

Continue with Cn1c(C(C)(C)C)nc(C(=O)NCc2ccc(F)cc2C(N)=O)c(O)c1=O
3.6 h

---

Species: Homo sapiens
ASSAY: Fraction unbound in human plasma proteins after 1 hr
Label rule, in plain words: fraction unbound at 1 h of 0.02 and up is rule met, under 0.02 is rule not met.

Some solved cases for reference:
- COMPOUND_STRUCTURE: "Cn1c(C(C)(C)C)nc(C(=O)NCc2ccc(F)cc2C(=O)NCC(F)(F)F)c(O)c1=O"
  LABEL_CLASS: "rule not met"
- COMPOUND_STRUCTURE: "CN(C)C(=O)c1cc(F)ccc1CNC(=O)c1nc(C(C)(C)C)n(C)c(=O)c1O"
  LABEL_CLASS: "rule met"
- COMPOUND_STRUCTURE: "Cn1c(C(C)(C)C)nc(C(=O)NCc2ccc(F)cc2C(N)=O)c(O)c1=O"
  LABEL_CLASS: "rule met"
- COMPOUND_STRUCTURE: "CN1CCN(C(=O)c2cc(F)ccc2CNC(=O)c2nc(C(C)(C)C)n(C)c(=O)c2O)CC1"
  LABEL_CLASS: "rule met"
- COMPOUND_STRUCTURE: "CC(C)NC(=O)c1cc(F)ccc1CNC(=O)c1nc(C(C)(C)C)n(C)c(=O)c1O"
  LABEL_CLASS: "rule not met"

Form field: fraction unbound at 1 h at least 0.02? Entry: CNC(=O)c1cc(F)ccc1CNC(=O)c1nc(C(C)(C)C)n(C)c(=O)c1O
rule met

// next record CCNC(=O)c1cc(F)ccc1CNC(=O)c1nc(C(C)(C)C)n(C)c(=O)c1O
rule met

---

Test system: Human immunodeficiency virus 1
ASSAY: Antiviral activity against HIV1 3b in human MT4 cells assessed as inhibition of viral spread in presence of 50% normal human serum
Format: functional
SETUP_CONDITIONS: Human immunodeficiency virus 1, 3b, read-out: CIC95
MEASURED_ATTRIBUTE: IC95 (µM)
# value in µM; strip the unit string

Answered examples (5):
- COMPOUND_STRUCTURE: "CC(C)NC(=O)c1cc(F)ccc1CNC(=O)c1nc(C(C)(C)C)n(C)c(=O)c1O"
  IC95, µM: 0.06
- COMPOUND_STRUCTURE: "CCCNC(=O)c1cc(F)ccc1CNC(=O)c1nc(C(C)(C)C)n(C)c(=O)c1O"
  IC95, µM: 0.06
- COMPOUND_STRUCTURE: "Cn1c(C(C)(C)C)nc(C(=O)NCc2ccc(F)cc2C(N)=O)c(O)c1=O"
  IC95, µM: 0.01
- COMPOUND_STRUCTURE: "CC(C)(C)c1nc(O)c(O)c(C(=O)NCc2ccc(F)cc2)n1"
  IC95, µM: 2.5
- COMPOUND_STRUCTURE: "Cn1c(C(C)(C)C)nc(C(=O)NCc2ccc(F)cc2C(=O)NCC(F)(F)F)c(O)c1=O"
  IC95, µM: 0.12

Given Cn1c(C(C)(C)C)nc(C(=O)NCc2ccc(F)cc2S(C)(=O)=O)c(O)c1=O , state its recorded IC95.
0.02

Next entry: CNC(=O)c1cc(F)ccc1CNC(=O)c1nc(C(C)(C)C)n(C)c(=O)c1O
0.01

Same read-out for CN1CCN(C(=O)c2cc(F)ccc2CNC(=O)c2nc(C(C)(C)C)n(C)c(=O)c2O)CC1 ?
0.12

Same lookup for Cn1c(C(C)(C)C)nc(C(=O)NCc2ccc(F)cc2C(=O)N2CCCC2)c(O)c1=O , please.
0.12

Now this one: CCOc1ccccc1CNC(=O)c1nc(C(C)(C)C)n(C)c(=O)c1O
0.5

// query: Cn1c(C(C)(C)C)nc(C(=O)NCc2ccc(F)cc2)c(O)c1=O
0.37

Another: CN(C)C(=O)c1cc(F)ccc1CNC(=O)c1nc(C(C)(C)C)n(C)c(=O)c1O
0.03

Record: CCNC(=O)c1cc(F)ccc1CNC(=O)c1nc(C(C)(C)C)n(C)c(=O)c1O
0.02

Proceed to Cc1noc(-c2cc(F)ccc2CNC(=O)c2nc(C(C)(C)C)n(C)c(=O)c2O)n1
0.12
